Origin of values: paper PMC5540273

Test system: ACVR1B
Details: concentration: 1 μM,replicates: in singlicate; n = 1;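 further: KINOMEscan kinase panel screen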
measured-metric: %Inh (%)
The answer is to be given in %; state only the numeric part.

Take a look at these entries with their results.
{"columns": ["compound", "%Inh / %"],
 "data": [
  ["OCCn1cc(-c2cnc3nnn(Cc4ccc5ncccc5c4)c3n2)cn1", 51],
  ["NC(=O)Nc1sc(-c2ccc(F)cc2)cc1C(N)=O", 5],
  ["Cc1nnc(-c2ccc3occ(-c4ccc(S(C)=O)cc4)c3n2)o1 (centres unmarked)", 0],
  ["CN(c1ccccc1CNc1nc(Nc2ccc3c(c2)CC(=O)N3)ncc1C(F)(F)F)S(C)(=O)=O", 28],
  ["CCn1c(-c2nonc2N)nc2cncc(Br)c21", 30],
  ["O=C1NCCc2[nH]c(-c3ccncc3)cc21", 40],
  ["Cc1cccc2c(-c3ccncc3)c(-c3ccc(F)cc3)nn12.Cl", 18],
  ["Cl.Nc1n[nH]c2cc(-c3ccccn3)ccc12", 0]
]}

Data point: C[C@@H](Oc1cc(-n2cnc3cc(-c4ccncc4)ccc32)sc1C(N)=O)c1ccccc1Cl ; %Inh = 0

%Inh in this record for CC(=O)c1c(-c2ccncc2)[nH]c(-c2ccncc2)c1C : 0

Record CN1CCN(CCNc2nc3cc(Oc4ccc(NC(=O)Nc5cc(C(F)(F)F)ccc5F)cc4)ccc3[nH]2)CC1.Cl.Cl , field %Inh: 0

---

System: TXK
Conditions: concentration: 1 μM,replicates: in singlicate; n = 1
measured-metric: %Inh (%)
Just the number please, in %, no unit attached.

{"columns": ["molecule", "unit-symbol", "%Inh"],
 "data": [
  ["COc1ccc(Nc2nccc(N3CCC(NC(=O)c4cccc(C#N)c4)C3)n2)cc1 (stereo not shown) [GSK1379730]", "%", 41],
  ["O=C(Nc1n[nH]c2cc(-c3ccco3)ccc12)C1CC1 [SB-737447]", "%", 0],
  ["Cc1ccc(CC(=O)N2CCc3cc(-c4cn(C)c5ncnc(N)c45)ccc32)cc1 [GSK2634758]", "%", 8]
]}

Consider the additional molecule presented here.
get_value(item= Cc1ccc(C(=O)Nc2ccc(Oc3ccc4nc(NC(=O)C5CC5)cn4c3)c(F)c2)c(=O)n1-c1ccccc1 , readout=%Inh) returns 76

---

System: DDR1
Conditions: concentration: 1 μM,replicates: in singlicate; n = 1
Parameter threshold = 80%. Response is class 1 when %Inh meets or exceeds it, else class 0.

Study these solved cases before continuing.
{"columns": ["molecule", "assigned-category"],
 "data": [
  ["CN1CCN(CCCNc2nccc(-c3c(-c4ccc(F)cc4)nn4cc(C(N)=O)ccc34)n2)CC1", "class 1"],
  ["N#Cc1cccc(C(=O)NC2CCN(c3ccnc(Nc4ccc(F)cc4)n3)C2)c1 (stereo not drawn)", "class 0"],
  ["CC(=O)Nc1ccc(-c2cc3ncnc(SCC(=O)O)c3s2)cc1", "class 0"],
  ["Cn1ccc2ncnc(Oc3ccc(NC(=O)Nc4cc(C(C)(C)C)on4)c(Cl)c3)c21", "class 1"],
  ["FC(F)(F)c1cc(Br)cc(Nc2nccc(-c3cnn4ncccc34)n2)c1", "class 0"],
  ["Cc1ccc2c(-c3ccnc(Nc4ccc(C(F)(F)F)cc4)n3)cnn2n1", "class 0"],
  ["Cn1ccc2ncnc(Oc3ccc(NC(=O)Nc4cccc(C(F)(F)F)c4)c(Cl)c3)c21", "class 1"],
  ["Cc1cccc2c(-c3ccncc3)c(-c3ccc(F)cc3)nn12.Cl", "class 0"],
  ["Cn1ccc2ncnc(Oc3ccc(NC(=O)Nc4cncc(C(F)(F)F)c4)c(Cl)c3)c21", "class 1"],
  ["CCNCC(Cc1ccccc1)NC(=O)c1cc(Br)c(-c2ccnc3[nH]ccc23)s1.Cl.Cl (stereo not drawn)", "class 0"]
]}

**Q:** Could you verify whether the entry Cc1ccc(C(=O)Nc2ccc(Oc3ccc4nc(NC(=O)C5CC5)cn4c3)c(F)c2)c(=O)n1-c1ccccc1 shows %Inh of no less than 80%?
**A:** class 1

**Q:** Answer whether %Inh of Cc1ccn2nc(-c3ccc(F)cc3)c(-c3ccncc3)c2c1.Cl is greater than or equal to 80%.
**A:** class 0

**Q:** Is reported %Inh greater than or equal to 80% here: NC(=O)c1ccc(-c2cc3ncnc(SCC(=O)O)c3s2)cc1
**A:** class 0

**Q:** Is reported %Inh greater than or equal to 80% here: OCCn1cc(-c2cnc3nnn(Cc4ccc5ncccc5c4)c3n2)cn1
**A:** class 0

**Q:** Exam item: decide whether the reported %Inh for CS(=O)c1ccc(-c2coc3ccc(-c4n[nH]c(=O)o4)cc23)cc1 (stereo not drawn) is at least 80%.
**A:** class 0

---

System: LZK
Construct: gene MAP3K13
Conditions: concentration: 1 μM,replicates: in singlicate; n = 1
measured-metric: %Inh (%)
A number alone suffices; assume %.

{"columns": ["compound", "unit-symbol", "measurement"],
 "data": [
  ["COC(=O)c1cccc(NC(=O)NC2CCN(c3ccnc(NCc4ccc(F)cc4)n3)CC2)c1", "%", 0],
  ["C[C@@H]1CNc2c(sc3ccc4nc(-c5ccc(O)cc5)ccc4c23)C(=O)N1", "%", 0],
  ["CCCC(=O)Nc1n[nH]c2ncccc12", "%", 0],
  ["CC(C)S(=O)(=O)N1CCN(Cc2ccc3c(c2)nc(NC(=O)c2ccsc2)n3C[C@H](O)c2ccccc2)CC1", "%", 69],
  ["O=C(Nc1cccc(C(F)(F)F)c1)c1cccc(Oc2ccc3nccn3n2)c1", "%", 20],
  ["Cl.Nc1n[nH]c2cc(-c3ccccn3)ccc12", "%", 0],
  ["FC(F)(F)c1cc(Br)cc(Nc2nccc(-c3cnn4ncccc34)n2)c1", "%", 0],
  ["Cc1ccc(Nc2ccnc(Nc3ccc4c(c3)CS(=O)(=O)C4)n2)cc1O.Cl", "%", 58]
]}

Measured on LZK, Cc1ccc(CC(=O)N2CCc3cc(-c4cn(C)c5ncnc(N)c45)ccc32)cc1 has a documented %Inh of 24

Readout %Inh for CN1CCN(CCCNc2nccc(-c3c(-c4ccc(F)cc4)nn4cc(C(N)=O)ccc34)n2)CC1 , test system LZK, was 0

---

System: MEK5
Construct: gene MAP2K5
Conditions: concentration: 1 μM,replicates: in singlicate; n = 1
Sorting guide: entries reporting %Inh beneath 30% go in the T pile, the rest go in the F pile.

{"columns": ["compound", "assigned-category"],
 "data": [
  ["CC(=O)Nc1ccc(-c2cc3ncnc(SCC(=O)O)c3s2)cc1", "T"]
]}

**Q:** API: query returns whether the compound falls strictly under 30% in %Inh. Query: C[C@@H]1CNc2c(sc3ccc4nc(-c5ccncc5)ccc4c23)C(=O)N1
**A:** F

**Q:** Lab log: compare recorded %Inh with 30%; is it strictly lower for COc1cccc(CNC(=O)NC2CCN(c3ccnc(Nc4cc(OC)c(OC)c(OC)c4)n3)C2)c1 (centres unmarked) [GSK1379765] ?
**A:** F

**Q:** Here's an entry: O=c1[nH]cc(-c2ccc(O)cc2)c2sc(-c3ccncc3)cc12 [GSK1033723] . Is its %Inh below 30%?
**A:** F

---

System: BMPR2
Conditions: concentration: 1 μM,replicates: in singlicate; n = 1
Lab note: anything with %Inh below 3% is marked T; values at 3% or higher are marked F.

// below: answered molecules
{"columns": ["molecule", "tested-system", "assigned-category"],
 "data": [
  ["CNC(=O)c1ccccc1Nc1nc(Nc2cccc(CS(C)(=O)=O)c2)ncc1C.O=CO", "BMPR2", "F"],
  ["CC(C)S(=O)(=O)N1CCN(Cc2ccc3c(c2)nc(NC(=O)c2ccsc2)n3C[C@H](O)c2ccccc2)CC1", "BMPR2", "F"],
  ["C[C@@H](Oc1cc(-n2cnc3cc(-c4cnn(C)c4)ccc32)sc1C(N)=O)c1ccccc1Cl", "BMPR2", "T"]
]}

**Q:** Record CCCC(=O)Nc1n[nH]c2ncccc12 : is its %Inh strictly below 3%?
**A:** F

**Q:** # TODO verify %Inh < 3% strictly for this molecule: N#Cc1cccc(C(=O)NC2CCN(c3ccnc(Nc4ccc(F)cc4)n3)C2)c1 (stereo not shown)
**A:** T

**Q:** Does the reported %Inh of the following molecule sit strictly below 3%? O=C1NCCc2[nH]c(-c3ccncc3)cc21
**A:** F

**Q:** Record O=C(Nc1cccc(C(F)(F)F)c1)c1cccc(Oc2ccc3nccn3n2)c1 : is its %Inh strictly below 3%?
**A:** F

**Q:** Does the reported %Inh of the following molecule sit strictly below 3%? COc1cccc(OC)c1C(=O)Nc1cccc(-c2nn3ccccc3c2-c2ccnc(Nc3cccc(F)c3)n2)c1
**A:** T

**Q:** Please state whether %Inh is below 3% for Cn1ccc2ncnc(Oc3ccc(NC(=O)Nc4cccc(C(F)(F)F)c4)c(Cl)c3)c21
**A:** T
